Data origin: ChEMBL document CHEMBL5291721

system: Alpha-2C adrenergic receptor (Homo sapiens, UniProt P18825); also: assay procedure not described here
Sequence (P18825 whole entry): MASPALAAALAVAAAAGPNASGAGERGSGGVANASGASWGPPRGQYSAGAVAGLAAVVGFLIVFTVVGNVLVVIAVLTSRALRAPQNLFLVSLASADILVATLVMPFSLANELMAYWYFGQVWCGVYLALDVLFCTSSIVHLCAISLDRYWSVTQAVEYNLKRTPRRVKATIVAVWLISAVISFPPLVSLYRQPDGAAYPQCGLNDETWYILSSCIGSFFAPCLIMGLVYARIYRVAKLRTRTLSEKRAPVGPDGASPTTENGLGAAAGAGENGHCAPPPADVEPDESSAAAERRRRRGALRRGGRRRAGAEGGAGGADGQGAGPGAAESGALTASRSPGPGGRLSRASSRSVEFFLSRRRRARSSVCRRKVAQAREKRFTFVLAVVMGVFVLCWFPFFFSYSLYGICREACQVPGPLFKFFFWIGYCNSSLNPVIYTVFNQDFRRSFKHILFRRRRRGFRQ
Assay type: functional
measurementLabel: AC50

>>> result("NS(=O)(=O)c1cc(C(=O)O)cc(N2CCCC2)c1Oc1ccccc1 [PIRETANIDE]")
"> 30000 nM"
>>> result("O=C(O)c1cc(O)c2c3nc4ccccc4oc-3cc(=O)c2n1")
"2700 nM"
>>> result("[H]/N=C(\\N/C(=N/[H])NCCCCCCNC(=N)NC(=N)Nc1ccc(Cl)cc1)Nc1ccc(Cl)cc1")
"1800 nM"
>>> result("CCOC(=O)NNc1ccc(N(CC)CC(C)O)nn1 (stereo not drawn)")
"> 30000 nM"
>>> result("O=C1Nc2ccc(Cl)cc2C(c2ccccc2)=NC1O (stereo not drawn)")
"> 10000 nM"
>>> result("O=C(O)c1ccccc1OP(=O)(O)O")
"> 30000 nM"
>>> result("CCSc1ccc2c(c1)N(CCCN1CCN(C)CC1)c1ccccc1S2")
"2200 nM"
>>> result("CC(=O)O[C@H]1C[C@@H]2CC[C@@H]3[C@H](CC[C@@]4(C)[C@H]3C[C@H]([N+]3(C)CCCCC3)[C@@H]4OC(C)=O)[C@@]2(C)C[C@@H]1[N+]1(C)CCCCC1")
"> 10000 nM"

* * *

Listed here: compounds with reported AC50 for Histamine H1 receptor (Homo sapiens, UniProt P35367).
measurementLabel: AC50

>>> result("Oc1c(I)cc(Cl)c2cccnc12 [CLIOQUINOL]")
"> 30 µM"
>>> result("CC(CCc1ccccc1)NC(C)C(O)c1ccc(O)cc1 (centres undefined) [NYLIDRIN]")
"> 10 µM"
>>> result("CO/N=C(\\C(=O)N[C@@H]1C(=O)N2C(C(=O)O)=C(COC(N)=O)CS[C@H]12)c1ccco1 [CEFUROXIME]")
"> 30 µM"
>>> result("CNC[C@H](O)c1cccc(O)c1 [PHENYLEPHRINE]")
"> 10 µM"
>>> result("CN1CCN(c2c(F)cc3c(=O)c(C(=O)O)cn4c3c2SCC4)CC1 [RUFLOXACIN]")
"> 30 µM"
>>> result("O=C(CCCN1CCC2(CC1)C(=O)NCN2c1ccccc1)c1ccc(F)cc1 [SPIPERONE]")
"1.4 µM"
>>> result("CNC(=O)c1cc(Oc2ccc(NC(=O)Nc3ccc(Cl)c(C(F)(F)F)c3)c(F)c2)ccn1 [REGORAFENIB]")
"> 30 µM"
>>> result("CCN(CC)C(=O)C1CN2CCc3cc(OC)c(OC)cc3C2CC1OC(C)=O (centres undefined) [BENZQUINAMIDE]")
"> 30 µM"
>>> result("CCN(CC)CC(=O)Oc1ccc(NC(C)=O)cc1 [PROPACETAMOL]")
"> 30 µM"
>>> result("C[C@@H]1CCC[C@H](C)N1NC(=O)c1ccc(Cl)c(S(N)(=O)=O)c1 [CLOPAMIDE]")
"> 30 µM"
>>> result("N=C(N)NCCCCCCC(=O)NC(O)C(=O)NCCCCNCCCN (centres undefined)")
"> 30 µM"
>>> result("C[C@@H]1C[C@H]2[C@@H]3C[C@H](F)C4=CC(=O)C=C[C@]4(C)[C@@]3(F)[C@@H](O)C[C@]2(C)[C@H]1C(=O)CO [DIFLUCORTOLONE]")
"> 30 µM"
>>> result("CN(c1nccc(=O)[nH]1)C1CCN(c2nc3ccccc3n2Cc2ccc(F)cc2)CC1 [MIZOLASTINE]")
"> 30 µM"
>>> result("C=CC(N)CCC(=O)O (centres undefined) [VIGABATRIN]")
"> 10 µM"
>>> result("CC(C)OC(=O)C(C(=O)OC(C)C)=C1SC=CS1 [MALOTILATE]")
"> 30 µM"
>>> result("O=C(O)c1ccccc1Nc1cccc(C(F)(F)F)c1 [FLUFENAMIC ACID]")
"0.082 µM"
>>> result("CCCCC[C@H](O)/C=C/[C@H]1[C@H](O)CC(=O)[C@@H]1C/C=C\\CCCC(=O)O [DINOPROSTONE]")
"> 30 µM"
>>> result("CN(C)c1cc(CNCC(C)(C)C)c(O)c2c1C[C@H]1C[C@H]3[C@H](N(C)C)C(O)=C(C(N)=O)C(=O)[C@@]3(O)C(O)=C1C2=O [OMADACYCLINE]")
"> 30 µM"
>>> result("O=C1CN2Cc3c(ccc(Cl)c3Cl)N=C2N1 [ANAGRELIDE]")
"> 10 µM"

* * *

Below are AC50 values measured for Kappa-type opioid receptor (Homo sapiens).
measurementLabel: AC50

>>> result("CC(=O)Nc1c(I)c(C(=O)N[C@H]2C(O)O[C@H](CO)[C@@H](O)[C@@H]2O)c(I)c(N(C)C(C)=O)c1I (stereo partly drawn) [METRIZAMIDE]")
"> 10 µM"
>>> result("CCC(=O)O[C@@H](O[P@](=O)(CCCCc1ccccc1)CC(=O)N1C[C@H](C2CCCCC2)C[C@H]1C(=O)O)C(C)C")
"> 30 µM"
>>> result("CCOC(=O)NNc1ccc(N(CC)CC(C)O)nn1 (stereo not drawn)")
"> 30 µM"
>>> result("O=C(O)CSCC(=O)NC1CCSC1=O (stereo not drawn)")
"> 30 µM"
>>> result("CCCCNc1ccc(C(=O)OCCN(C)C)cc1")
"> 10 µM"
>>> result("CC(/C=C1\\SC(=S)N(CC(=O)O)C1=O)=C\\c1ccccc1")
"28 µM"
>>> result("CN1C[C@H](C(=O)N[C@]2(C)O[C@@]3(O)[C@@H]4CCCN4C(=O)[C@H](Cc4ccccc4)N3C2=O)C[C@@H]2c3cccc4[nH]cc(c34)C[C@H]21 [DIHYDROERGOTAMINE]")
"> 10 µM"
>>> result("CC[C@@H](CO)NC(=O)[C@@H]1C=C2c3cccc4[nH]cc(c34)C[C@H]2N(C)C1")
"> 30 µM"

* * *

system: Muscarinic acetylcholine receptor M2 (Homo sapiens)
Type: functional, cell-based
measurementLabel: AC50

>>> result("CNCC[C@H](Oc1cccc2ccccc12)c1cccs1")
"> 10 µM"
>>> result("COCCCOc1ccnc(C[S+]([O-])c2nc3ccccc3[nH]2)c1C (stereo not given)")
"> 10 µM"
>>> result("COc1cccc(N(C)C(=S)Oc2ccc3c(c2)CCCC3)n1 [LIRANAFTATE]")
"> 30 µM"
>>> result("NS(=O)(=O)c1cc2c(cc1C(F)(F)F)NC(Cc1ccccc1)NS2(=O)=O (stereo not given) [BENDROFLUMETHIAZIDE]")
"> 10 µM"
>>> result("Clc1ccc2c(c1)C(c1ccccc1)=NCc1nncn1-2")
"> 10 µM"

* * *

system: UniProt:P06401
Sequence (P06401 whole entry): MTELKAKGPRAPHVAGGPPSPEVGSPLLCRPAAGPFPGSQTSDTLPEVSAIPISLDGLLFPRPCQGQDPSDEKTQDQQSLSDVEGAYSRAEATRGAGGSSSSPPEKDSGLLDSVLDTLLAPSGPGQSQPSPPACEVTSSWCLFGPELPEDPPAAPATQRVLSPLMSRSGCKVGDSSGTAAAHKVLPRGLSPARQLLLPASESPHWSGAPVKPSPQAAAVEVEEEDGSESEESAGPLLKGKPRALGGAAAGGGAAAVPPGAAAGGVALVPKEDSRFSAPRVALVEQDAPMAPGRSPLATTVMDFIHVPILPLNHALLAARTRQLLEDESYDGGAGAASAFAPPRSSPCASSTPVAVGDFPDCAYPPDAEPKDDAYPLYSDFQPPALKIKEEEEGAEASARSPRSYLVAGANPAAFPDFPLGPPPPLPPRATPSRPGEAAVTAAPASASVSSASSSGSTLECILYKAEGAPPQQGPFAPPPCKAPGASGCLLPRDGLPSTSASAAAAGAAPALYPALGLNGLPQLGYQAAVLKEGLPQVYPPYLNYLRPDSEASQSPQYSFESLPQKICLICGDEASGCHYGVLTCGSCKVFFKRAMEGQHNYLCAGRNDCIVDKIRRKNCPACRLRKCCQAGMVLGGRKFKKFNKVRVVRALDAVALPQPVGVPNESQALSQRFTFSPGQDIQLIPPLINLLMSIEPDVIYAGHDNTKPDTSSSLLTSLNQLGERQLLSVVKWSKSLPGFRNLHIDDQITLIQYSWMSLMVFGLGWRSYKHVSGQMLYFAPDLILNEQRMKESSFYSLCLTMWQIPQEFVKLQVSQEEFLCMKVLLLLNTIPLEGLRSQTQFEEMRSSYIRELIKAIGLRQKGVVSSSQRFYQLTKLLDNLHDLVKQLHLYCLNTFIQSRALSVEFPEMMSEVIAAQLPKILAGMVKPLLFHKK
Type: functional
measurementLabel: AC50

>>> result("CC(C)N(CCCCOCC(=O)NS(C)(=O)=O)c1cnc(-c2ccccc2)c(-c2ccccc2)n1")
"> 30 µM"
>>> result("Nc1ccc(C(=O)O)c(O)c1")
"> 30 µM"
>>> result("CNCC[C@@H](Oc1ccccc1C)c1ccccc1")
"> 30 µM"
>>> result("COc1cc2nccc(Oc3ccc(NC(=O)Nc4cc(C)on4)c(Cl)c3)c2cc1OC")
"> 3 µM"
>>> result("COc1cc2c(Nc3ccc(Br)cc3F)ncnc2cc1OCC1CCN(C)CC1")
"> 10 µM"
>>> result("O=C1NC(=O)C(c2ccccc2)(c2ccccc2)N1")
"> 30 µM"
>>> result("COC(=O)N[C@@H](C)CNc1nccc(-c2cn(C(C)C)nc2-c2cc(Cl)cc(NS(C)(=O)=O)c2F)n1")
"> 30 µM"
>>> result("CC1(C)C(C=C(Cl)Cl)C1C(=O)OCc1cccc(Oc2ccccc2)c1 (centres undefined)")
"> 30 µM"
>>> result("O=C(O)c1ccccc1OP(=O)(O)O")
"> 30 µM"

* * *

system: Muscarinic acetylcholine receptor M2 (Homo sapiens, UniProt P08172)
Sequence (P08172 whole entry): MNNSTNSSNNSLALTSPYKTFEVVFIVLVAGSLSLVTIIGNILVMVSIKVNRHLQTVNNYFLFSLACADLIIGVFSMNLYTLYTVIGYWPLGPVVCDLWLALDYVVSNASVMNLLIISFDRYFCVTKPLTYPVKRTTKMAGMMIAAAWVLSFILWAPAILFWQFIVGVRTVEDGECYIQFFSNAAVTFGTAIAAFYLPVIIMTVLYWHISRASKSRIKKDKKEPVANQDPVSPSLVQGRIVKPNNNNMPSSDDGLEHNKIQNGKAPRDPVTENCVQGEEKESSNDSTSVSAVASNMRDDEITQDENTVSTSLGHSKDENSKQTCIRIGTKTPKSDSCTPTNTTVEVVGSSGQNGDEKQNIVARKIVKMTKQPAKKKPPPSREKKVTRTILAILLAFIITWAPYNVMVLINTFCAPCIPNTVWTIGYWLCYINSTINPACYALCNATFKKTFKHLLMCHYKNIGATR
Assay type: functional, cell-based
Below is a list of entries, each paired with its recorded AC50 value.
measurementLabel: AC50

>>> result("NS(=O)(=O)c1cc(C2(O)NC(=O)c3ccccc32)ccc1Cl (stereo not drawn)")
"> 10 µM"
>>> result("CO[C@@]1(NC(=O)CSCC#N)C(=O)N2C(C(=O)O)=C(CSc3nnnn3C)CS[C@@H]21")
"> 30 µM"
>>> result("CO/N=C(\\C(=O)N[C@@H]1C(=O)N2C(C(=O)[O-])=C(C[n+]3cccc4c3CCC4)CS[C@H]12)c1csc(N)n1")
"> 30 µM"
>>> result("COCCOC(=O)C1=C(C)NC(C)=C(C(=O)OC/C=C/c2ccccc2)C1c1cccc([N+](=O)[O-])c1 (stereo not drawn)")
"> 30 µM"
>>> result("CN1CCN(c2c(F)cc3c(=O)c(C(=O)O)cn4c3c2SCC4)CC1")
"> 30 µM"
>>> result("C=CC(N)CCC(=O)O (stereo not drawn)")
"> 10 µM"
>>> result("Nc1ccn([C@@H]2O[C@H](CO)[C@@H](O)C2(F)F)c(=O)n1")
"> 10 µM"
>>> result("CC(NCCc1ccc(O)cc1)C(O)c1ccc(O)cc1 (stereo not drawn)")
"> 30 µM"
